Read-out: Interleukin-1 alpha (IL1a), IL1A (gene 3552)
Test: BSK_BE3C_IL1a: BioMAP Diversity Plus: BE3C Assay for Interleukin-1 alpha (IL1a) Biomarker Activity (AID 2283016)
Conditions: primary human bronchial epithelial cells; actives raise or lower the signal
Protocol: BSK_BE3C is a cell-based, multiplexed-readout assay that uses bronchial epithelial cell, a human lung primary cell, with measurements taken at 24 hours after chemical dosing in a 96-well plate.BSK_BE3C_IL1a is an assay component measured in the BSK_BE3C assay. It measures IL-1a antibody related to regulation of gene expression using ELISA technology.Data from the assay component BSK_BE3C_IL1a was analyzed into 1 assay endpoint. […]
Activity calls are given as the source filed them. Rule for the calls: active = hit-call score of the fitted dose curve at least 0.9, where 1 is the maximum; inactive = score below 0.9.
Log the outcome using a class from YES (active), NO (inactive)

[[record]]
chem_smiles = "Cc1ccc2oc(CN(Cc3ccccc3)C(=O)Nc3c(F)cc(F)cc3F)c(-c3ccc(Cl)cc3)c2c1"
qualitative_label = "NO"

[[record]]
chem_smiles = "CCCCCCCCCCCCO"
qualitative_label = "YES"

[[record]]
chem_smiles = "CC(=O)N1CCN(c2ccc(OC[C@H]3CO[C@](Cn4ccnc4)(c4ccc(Cl)cc4Cl)O3)cc2)CC1"
qualitative_label = "NO"

[[record]]
chem_smiles = "CCO[Si](CCCNC(N)=O)(OCC)OCC"
qualitative_label = "NO"

[[record]]
chem_smiles = "CC1(C)NC(=O)N(c2ccc([N+](=O)[O-])c(C(F)(F)F)c2)C1=O"
qualitative_label = "NO"


Task: What did the test return for Oc1ccc2ccccc2c1 ?
Output: NO
